// data source = BindingDB's records for doi:10.1021/jm070336k

reportedEndpoint: IC50

In: Hello, I am looking for reported IC50 with UniProtKB Q5E9B1 for "O=C(O)C(=O)Nc1ccc(CCOc2cc(O)c3c(=O)cc(C(=O)O)oc3c2)cc1" . Could you help?
Out: > 241 µM

In: Param readout = IC50; param system = UniProtKB Q5E9B1; param query = "COc1cc(COc2cc(O)c3c(=O)cc(C(=O)O)oc3c2)ccc1NC(=O)C(=O)O" ; response: value
Sequence (Q5E9B1 whole entry): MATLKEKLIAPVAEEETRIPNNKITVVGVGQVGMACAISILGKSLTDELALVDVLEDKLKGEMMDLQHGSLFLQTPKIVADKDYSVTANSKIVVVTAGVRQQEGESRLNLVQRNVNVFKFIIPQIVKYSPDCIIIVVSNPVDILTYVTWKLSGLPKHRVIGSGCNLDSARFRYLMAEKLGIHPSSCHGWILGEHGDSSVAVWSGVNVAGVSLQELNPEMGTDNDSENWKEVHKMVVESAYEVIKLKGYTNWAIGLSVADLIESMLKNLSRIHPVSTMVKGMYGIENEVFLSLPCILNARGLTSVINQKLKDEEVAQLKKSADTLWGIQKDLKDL
Out: > 232 µM

In: Could you share what IC50 was measured for "COc1ccc(CNC(=O)c2cc(=O)c3c(O)cc(OCCc4ccc(NC(=O)C(=O)O)cc4)cc3o2)cc1" , tested on UniProtKB Q5E9B1?
Out: > 187 µM

###

target: L-lactate dehydrogenase (Plasmodium falciparum (isolate CDC / Honduras), UniProt Q27743); test: Lactate Dehydrogenase Inhibition Assay; settings: pH 7; 25 °C
Sequence (Q27743 whole entry): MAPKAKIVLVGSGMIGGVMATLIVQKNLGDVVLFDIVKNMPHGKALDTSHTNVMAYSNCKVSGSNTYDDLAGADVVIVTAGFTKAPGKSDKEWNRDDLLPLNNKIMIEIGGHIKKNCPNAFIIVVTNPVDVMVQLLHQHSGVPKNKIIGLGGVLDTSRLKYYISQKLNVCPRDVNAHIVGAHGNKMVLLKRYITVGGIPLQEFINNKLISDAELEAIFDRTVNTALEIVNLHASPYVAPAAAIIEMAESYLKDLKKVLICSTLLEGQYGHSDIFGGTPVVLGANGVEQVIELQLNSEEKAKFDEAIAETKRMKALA
pIC50: −log10 of the molar value.
reportedEndpoint: pIC50

In: Given "O=C(O)C(=O)Nc1ccc(CCOc2cc(O)c3c(=O)cc(C(=O)O)oc3c2)cc1" , state its recorded pIC50.
Out: < 3.62
